- measured-target: Urotensin-2 receptor (Homo sapiens)
- Sequence (Q9UKP6 whole entry): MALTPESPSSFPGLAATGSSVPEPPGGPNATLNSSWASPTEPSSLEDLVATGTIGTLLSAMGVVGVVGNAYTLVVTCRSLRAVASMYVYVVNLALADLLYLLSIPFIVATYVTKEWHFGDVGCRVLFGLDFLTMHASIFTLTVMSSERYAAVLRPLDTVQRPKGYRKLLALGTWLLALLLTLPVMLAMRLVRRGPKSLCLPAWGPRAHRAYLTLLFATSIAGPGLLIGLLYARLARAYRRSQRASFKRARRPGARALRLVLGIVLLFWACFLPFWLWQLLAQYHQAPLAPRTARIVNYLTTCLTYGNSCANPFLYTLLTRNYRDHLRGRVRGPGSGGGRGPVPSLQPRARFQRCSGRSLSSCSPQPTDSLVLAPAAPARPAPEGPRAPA
- run-description: Allosteric modulation of human urotensin-2 receptor expressed in HEK293 cells assessed as change in human urotensin-2-induced G12 activation by measuring urotensin-2 pEC50 at 10^-5 M preincubated for 30 mins followed by urotensin-2 addition by BRET assay (Rvb = 6.31 +/- 0.17 No_unit)
parameter-measured: pEC50
When answering, recall that pEC50 equals minus log10 of the concentration in mol/L, and write that number alone.

get_value(item= NCCCN1N=C(CCc2nc3ccccc3s2)c2ccccc2N(Cc2ccc3ccccc3c2)C1=O , readout=pEC50) returns 5.43

get_value(item= COc1ccc(C=CC2=NN(CCCCN)C(=O)N(Cc3ccc(-c4ccccc4)cc3)c3ccccc32)cc1 , readout=pEC50) returns 5.65

get_value(item= NCCCCN1N=C(CCc2ccc(O)cc2)c2ccccc2N(Cc2ccc3ccccc3c2)C1=O , readout=pEC50) returns 5.93

get_value(item= NCCCCN1N=C(C=Cc2ccc(O)cc2)c2ccccc2N(Cc2ccc(-c3ccccc3)cc2)C1=O , readout=pEC50) returns 5.66
